meta.source: ChEMBL document CHEMBL4513216

assay method text: Toxicity liver stage against HepG2, at 10uM
Assay type: cell-based
Set-up: test concentration 10 uM, cell line HepG2-A16-CD81EGFP
condition info: human, HepG2-A16-CD81EGFP cells; read-out: INHIBITION
recorded endpoint: cytotoxicity at 10 µM (%)

> print(dat)
                                   compound  readout.unit  measurement
1  Cc1cc(C(F)(F)F)nc(CCNC(C)Cn2ccnc2)n1 (stereo unspecified)             %         4.21
2   CCN1CCC(NC(=O)CN2CCc3c(ncn3C3CC3)C2)CC1             %         -4.8
3  CN(C)C(=O)N1CCC2(CCCN(c3ncccn3)C2)C1 (stereo unspecified)             %         4.82
4  O=C(NC1CCCN(c2ccc(OC(F)F)cc2)C1)c1cnccn1 (stereo unspecified)             %            0
5    CCN(CC)CC(=O)N1CCN(c2nc(C)cc(OC)n2)CC1             %        -10.4
6  CN1C(=O)CC(c2ccccc2)C12CCN(CCO)CC2 (stereo unspecified)             %         6.47

----------
assay method text: Toxicity liver stage against HepG2, at 10uM
Type: cell-based
Set-up: test concentration 10 uM, cell line HepG2-A16-CD81EGFP
condition info: human, HepG2-A16-CD81EGFP cells; read-out: INHIBITION
recorded endpoint: cytotoxicity at 10 µM (%)

> print(dat)
                                   compound  measurement
1  Cc1noc(C(C)N2CCN(CCC(=O)N3CCCCC3)CC2)n1 (stereo unspecified)        -9.24
2  CNC(=O)C1CN(c2ncccn2)CCN1Cc1ccccc1 (stereo unspecified)         14.3
3  CC(=O)N1CCN(Cc2ccc(F)cc2)CC2(CC(=O)N(C)C2)C1 (stereo unspecified)        -2.78
4              Cc1cnc(NCC(C)(C)N2CCCCC2)nc1        -2.69
5  CC(=O)N1CCN(C(=O)NC(C)Cn2ccnc2)CC1 (stereo unspecified)        -1.05
6        O=C(CN(C1=NCCCC1)c1ccccc1)c1ccccc1       -0.239

----------
Listed molecules paired with reported cytotoxicity at 10 µM
assay method text: Toxicity liver stage against HepG2, at 10uM
Assay type: cell-based
Set-up: test concentration 10 uM, cell line HepG2-A16-CD81EGFP
condition info: human, HepG2-A16-CD81EGFP cells; read-out: INHIBITION
recorded endpoint: cytotoxicity at 10 µM (%)

> print(dat)
                                    molecule  measurement
 1  Cc1ccc(C(=O)N2C[C@@H]3OCCN(C)[C@@H]3C2)cn1        -68.3
 2  Cc1ccc(C(C)NC(=O)Cc2c(C)nc3cc(=O)[nH]n3c2C)s1 (stereo unspecified)       -0.159
 3  CC(C)c1cc(C(=O)N2C[C@@H](C)[C@](O)(C3CC3)C2)[nH]n1         16.3
 4         Cn1cncc1CN1CCC2(CCCN2c2ncccn2)CC1         9.37
 5  CCc1cnc(N2CCc3cc(C(=O)NC)c(N(C)C)nc3CC2)nc1         -125
 6     c1cc(C2CCN(Cc3nc(C4CC4)no3)CC2)[nH]n1         7.45
 7  CCC(C)N(Cc1cccnc1)Cc1cc2c(cc1OC)OCO2 (stereo unspecified)         3.17
 8  CC(=O)N1CCn2c(nnc2C2CCCCN2Cc2ccccc2Cl)C1 (stereo unspecified)         10.6
 9  Cn1nnnc1SCC(=O)N1CCN(C(=O)C2CC2c2cccs2)CC1 (stereo unspecified)         8.58
10     OC1(CNc2cc(C(F)(F)F)nc3ccccc23)CCOCC1        -11.3
11  CC1CCCN(C(=O)c2ncncc2Cl)C1 (stereo unspecified)         8.43
